Molecular target: HO-1 (rat spleen) (Rattus norvegicus, UniProt P06762)
Construct: Spleen microsomes were used as a source of HO-1; from tissue; host or cells: spleen microsomal fraction of adult male Sprague-Dawley rats
Sequence (P06762 whole entry): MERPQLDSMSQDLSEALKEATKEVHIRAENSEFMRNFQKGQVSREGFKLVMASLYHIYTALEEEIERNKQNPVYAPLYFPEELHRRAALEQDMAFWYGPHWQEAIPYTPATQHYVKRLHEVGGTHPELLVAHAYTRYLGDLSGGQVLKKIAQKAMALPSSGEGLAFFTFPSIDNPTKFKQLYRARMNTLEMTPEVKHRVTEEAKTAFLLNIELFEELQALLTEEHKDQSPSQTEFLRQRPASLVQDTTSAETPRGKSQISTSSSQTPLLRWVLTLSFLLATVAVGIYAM
Assay: HO enzymatic activity, rat spleen microsomal fraction (CO formation from methemalbumin)
Assay type: biochemical
Settings: CO formation from methemalbumin, mean ± SD of replicate experiments, read-out: IC50 HO-1 (rat spleen/μM)
Entries and their IC50 values follow.
measured.endpoint: IC50

compound	endpoint.result
CCCCn1ccnc1	> 100 µM
COC(=O)c1cn(CC(=O)CCc2ccccc2)cn1	> 100 µM
CSCC[C@@H](N)C(=O)O [QC-69, D-methionine, reference compound]	> 100 µM
